- System: Plasmodium falciparum
- PROCEDURE TEXT: Antiplasmodial activity against chloroquine-sensitive Plasmodium falciparum D6 infected in human RBC assessed as inhibition of parasite growth measured after 72 hrs by Malstat assay
- Type: functional, organism-based
- COND: D6, Erythrocyte
METRIC: pIC50
Worth noting: pIC50 values are minus log10 of concentrations stated in mol/L.

Reported pIC50 ( O=C(/C=C\c1ccc(O)c(O)c1)O[C@H]1CO[C@@H](Oc2c(-c3ccc(O)cc3)oc3cc(O)cc(O)c3c2=O)[C@H](OC(=O)/C=C/c2ccc(O)cc2)[C@H]1O ) = 5.54

----------
- Tested on: Plasmodium falciparum
- PROCEDURE TEXT: Antiplasmodial activity against chloroquine-resistant Plasmodium falciparum W2 infected in human RBC assessed as inhibition of parasite growth measured after 72 hrs by Malstat assay
- Assay type: functional, organism-based
- COND: W2, Erythrocyte
METRIC: IC50 (nM)
Write the answer as a number in nM, unit excluded.

Reported IC50 ( O=C(/C=C\c1ccc(O)c(O)c1)O[C@H]1CO[C@@H](Oc2c(-c3ccc(O)cc3)oc3cc(O)cc(O)c3c2=O)[C@H](OC(=O)/C=C/c2ccc(O)cc2)[C@H]1O ) = 2800

----------
- TEST TARGET: Falcipain 2 (Plasmodium falciparum, UniProt Q9N6S8)
- Sequence (Q9N6S8 whole entry): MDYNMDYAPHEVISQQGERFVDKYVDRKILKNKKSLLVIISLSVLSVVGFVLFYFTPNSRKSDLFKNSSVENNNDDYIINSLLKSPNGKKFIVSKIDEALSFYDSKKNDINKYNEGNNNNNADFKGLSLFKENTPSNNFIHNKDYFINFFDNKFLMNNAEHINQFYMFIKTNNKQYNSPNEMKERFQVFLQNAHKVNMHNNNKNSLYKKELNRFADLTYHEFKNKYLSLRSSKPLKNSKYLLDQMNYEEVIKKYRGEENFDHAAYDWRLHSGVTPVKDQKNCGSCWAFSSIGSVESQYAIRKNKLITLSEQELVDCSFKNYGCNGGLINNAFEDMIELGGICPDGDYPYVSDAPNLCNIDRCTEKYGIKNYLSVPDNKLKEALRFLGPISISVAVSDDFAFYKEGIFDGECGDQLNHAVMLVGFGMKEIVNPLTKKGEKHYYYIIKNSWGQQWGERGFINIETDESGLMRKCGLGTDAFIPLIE
Where a SMILES comes first, the peptide text is derived from it. [ ]: non-standard residue; d: D form. The star is where a group is joined. Ac6c = NC1(C(=O)O)CCCCC1; Cbz = O=C(OCc1ccccc1)*
METRIC: Ki

The compound O=CCNC(=O)C1(NC(=O)OCc2ccccc2)CCCCC1 (Cbz-[Ac6c]-Gly-aldehyde) , when measured on Falcipain 2 (Plasmodium falciparum, UniProt Q9N6S8), yielded Ki of 65 nM

----------
- Tested on: Cathepsin B (relative to Plasmodium falciparum FP-2)
- PROCEDURE TEXT: Selectivity index, ratio of Ki for inhibition of human Cathepsin B to Ki for inhibition of Plasmodium falciparum FP-2
- Type: toxicity
- COND: read-out: Ratio Ki
Where a SMILES comes first, the peptide text is derived from it. [ ]: non-standard residue; d: D form. The star is where a group is joined. Ac6c = NC1(C(=O)O)CCCCC1; Cbz = O=C(OCc1ccccc1)*
METRIC: selectivity ratio
// return just the number, without any unit appended

Reported selectivity ratio ( O=CCNC(=O)C1(NC(=O)OCc2ccccc2)CCCCC1 (Cbz-[Ac6c]-Gly-aldehyde) ) = 20.8

----------
- TEST TARGET: Falcipain 2 (Plasmodium falciparum, UniProt Q9N6S8)
- PROCEDURE TEXT: Inhibition of Plasmodium falciparum FP-2 using Z-Leu-Arg-AMC as substrate pretreated with enzyme for 30 mins followed by substrate addition and measured for 15 mins by spectrofluorometry
METRIC: IC50 (µM)
Write the answer as a number in µM, unit excluded.

Reported IC50 ( COc1cc(OC)c(/C=C2\SC(=O)N(CC(=O)N3CCN(c4ccccc4)CC3)C2=O)c(OC)c1 ) = 25.5

----------
- Tested on: Cathepsin L (relative to Plasmodium falciparum FP-2)
- PROCEDURE TEXT: Selectivity index, ratio of Ki for inhibition of human Cathepsin L to Ki for inhibition of Plasmodium falciparum FP-2
- Format: toxicity
- COND: read-out: Ratio Ki
Where a SMILES comes first, the peptide text is derived from it. [ ]: non-standard residue; d: D form. The star is where a group is joined. Ac6c = NC1(C(=O)O)CCCCC1; Cbz = O=C(OCc1ccccc1)*
Consider the following compounds and their measured selectivity ratio readings.
// return just the number, without any unit appended

{"COMPOUND": "N#CCNC(=O)C1(NC(=O)OCc2ccccc2)CCCCC1", "METRIC": "selectivity ratio", "NUMBER": 22.1}

Lab note: next compound to report on.
Reported selectivity ratio ( O=CCNC(=O)C1(NC(=O)OCc2ccccc2)CCCCC1 (Cbz-[Ac6c]-Gly-aldehyde) ) = 12.6

----------
- Test system: Plasmodium falciparum
- PROCEDURE TEXT: Antimalarial activity against Plasmodium falciparum FCB1 infected in erythrocytes assessed as inhibition of [3H]hypoxanthine incorporation incubated for 24 to 48 hrs by beta counting analysis
- Type: functional, organism-based
- COND: FCB1, Erythrocyte
METRIC: IC50 (µM)
Write the answer as a number in µM, unit excluded.

Reported IC50 ( COc1cc2cc(/C=C/C(=O)c3ccc(Cl)cc3Cl)c(Cl)nc2cc1OC ) = 19

----------
Consider the following compounds and their measured IC50 readings.
- Test system: Plasmodium falciparum
- PROCEDURE TEXT: Antimalarial activity against chloroquine-sensitive Plasmodium falciparum 3D7 infected in RBC measured after 24 to 30 hrs by microscopic analysis
- Type: functional, organism-based
- COND: 3D7, Erythrocyte
Write the answer as a number in µg/mL, unit excluded.

Past entries and their recorded results:
{"STRUCTURE SMILES": "Cc1ccc(-c2nn(-c3ccccc3)cc2/C=C/c2nnc(-c3ccc(Cl)cc3Cl)o2)cc1", "TEST TARGET": "Plasmodium falciparum", "IC50 (µg/mL)": 0.486}
{"STRUCTURE SMILES": "C(=C\\c1cn(-c2ccccc2)nc1-c1ccccc1)/c1nnc(-c2c[nH]c3ccccc23)o1", "TEST TARGET": "Plasmodium falciparum", "IC50 (µg/mL)": 0.245}
{"STRUCTURE SMILES": "C(=C\\c1cn(-c2ccccc2)nc1-c1ccccc1)/c1nnc(-c2ccco2)o1", "TEST TARGET": "Plasmodium falciparum", "IC50 (µg/mL)": 0.248}
{"STRUCTURE SMILES": "Cc1ccc(-c2nn(-c3ccccc3)cc2/C=C/c2nnc(-c3ccc(Cl)cc3)o2)cc1", "TEST TARGET": "Plasmodium falciparum", "IC50 (µg/mL)": 0.486}

Lab note: next compound to report on.
Reported IC50 ( Cc1ccc(-c2nn(-c3ccccc3)cc2/C=C/c2nnc(-c3ccc([N+](=O)[O-])cc3)o2)cc1 ) = 0.486

----------
Consider the following compounds and their measured IC50 readings.
- Tested on: Plasmodium falciparum
- PROCEDURE TEXT: Antimalarial activity against chloroquine-resistant Plasmodium falciparum RKL9 infected in RBC measured after 24 to 30 hrs by microscopic analysis
- Type: functional, organism-based
- COND: RKL9, Erythrocyte
Write the answer as a number in mg/L, unit excluded.

{"STRUCTURE SMILES": "Fc1ccc(-c2nn(-c3ccccc3)cc2/C=C/c2nnc(-c3c[nH]c4ccccc34)o2)cc1", "IC50 (mg/L)": 1.37}
{"STRUCTURE SMILES": "Cc1ccc(-c2nn(-c3ccccc3)cc2/C=C/c2nnc(-c3ccc(Cl)cc3)o2)cc1", "IC50 (mg/L)": 1.57}

Reported IC50 ( C(=C\c1cn(-c2ccccc2)nc1-c1ccccc1)/c1nnc(-c2c[nH]c3ccccc23)o1 ) = 0.724

Reported IC50 ( Cc1ccc(-c2nn(-c3ccccc3)cc2/C=C/c2nnc(-c3ccc(Cl)cc3Cl)o2)cc1 ) = 0.902

Reported IC50 ( C(=C\c1cn(-c2ccccc2)nc1-c1ccccc1)/c1nnc(-c2ccco2)o1 ) = 0.863

Reported IC50 ( Cc1ccc(-c2nn(-c3ccccc3)cc2/C=C/c2nnc(-c3ccc([N+](=O)[O-])cc3)o2)cc1 ) = 1.57

----------
Consider the following molecules and their measured IC50 readings.
- Test system: Plasmodium falciparum
- PROCEDURE TEXT: Antimalarial activity against Chloroquine-resistant Plasmodium falciparum RKL9 infected in human erythrocytes assessed as inhibition of parasite growth incubated for 72 hrs by Giemsa staining based analysis
- Type: functional, organism-based
- COND: RKL9, Erythrocyte
Write the answer as a number in µM, unit excluded.

{"STRUCTURE SMILES": "COc1ccc(/C=C(\\C#N)c2nc3ccccc3[nH]2)cc1O", "IC50 [µM]": 5.46}
{"STRUCTURE SMILES": "N#C/C(=C\\c1cccc(F)c1)c1nc2ccccc2[nH]1", "IC50 [µM]": 53.3}
{"STRUCTURE SMILES": "N#C/C(=C\\c1cccc(Br)c1)c1nc2ccccc2[nH]1", "IC50 [µM]": 43.4}
{"STRUCTURE SMILES": "COc1cc(/C=C(\\C#N)c2nc3ccccc3[nH]2)cc(OC)c1", "IC50 [µM]": 14.3}

Reported IC50 ( COc1cccc(/C=C(\C#N)c2nc3ccccc3[nH]2)c1 ) = 3.41
